test system: IGROV-1; assay: NCI tumour cell line growth inhibition, 48 h
Activity calls are given as the source filed them. Cut-off read from the data, not from the text of the source: active = GI50 up to about 1.1 µM and inactive = higher.
RESULT TYPE: GI50

Completed entries (count: 3):
Clc1ccc(CCc2ccncn2)c(Cl)c1; > 100 µM (inactive)
O=C(Nc1ccccc1)c1cc(S(=O)(=O)N2CCNNC2=O)c(S)cc1Cl; > 100 µM (inactive)
Cc1ccc(Sc2ccccc2N)cc1; 37.7 µM (inactive)

Give GI50 for each listed item.
1. O=c1[nH]c2c(c(=O)[nH]1)SC(c1ccccc1)C2 (stereo not drawn)
2. COc1ccc(C(=O)N/N=C/c2c(C)n(C)n(-c3ccccc3)c2=O)cc1
3. N#Cc1c(-c2ccccc2)c(C#N)c(=S)n(C2OC(CO)C(O)C(O)C2O)c1O (stereo not drawn)
4. COC(=O)[C@H](C)N(C)C(=O)[C@H](C)N1[C@@H](c2ccccc2)COC1(C)C
5. CC(=O)C(N1CCCCC1)C(O)(C(F)(F)F)C(F)(F)F (stereo not drawn)

Found:
["> 100 µM (inactive)", "> 100 µM (inactive)", "> 100 µM (inactive)", "> 100 µM (inactive)", "89.9 µM (inactive)"]

###

Exercise: for every item that follows, state its recorded GI50.
tested on: DU-145; assay: NCI tumour cell line growth inhibition, 48 h
Activity calls are given as the source filed them. Rule as the data show it: active = GI50 up to about 1.1 µM and inactive = higher.

Give GI50 for each listed item.
1. CNc1nnc(CNc2ccc(-c3nnc(NC)n3N)cc2)n1N
2. C=C1C(NC)CCC23CC24CCC2(C)C(C(C)=O)C(O)CC2(C)C4CCC13 (stereo not drawn)
3. COc1cc2c(c(O)c1C)C(=O)C(Cl)=CC2=O
4. C=CC[C@H](O)[C@@](NC(=O)OCc1ccccc1)(Sc1ccc(C)cc1)C(F)(F)F
5. C/C=C1\NC(=O)[C@H]2CSSCCC=C[C@H](CC(=O)N[C@H](C(C)C)C(=O)N2)OC(=O)[C@H](C(C)C)NC1=O
6. COc1ccc2c(c1)C1c3ccccc3CCN1CCC2 (stereo not drawn)
7. COC(=O)C1(C(=O)OC)Cc2ccc(OC)cc2C2=C1C(=O)c1ccccc1C2=O
8. O=C(O)[C@H]1CCCN1CP(=O)(O)CN1CCC[C@@H]1C(=O)O

Found:
1: > 100 µM (inactive); 2: > 100 µM (inactive); 3: 6.46 µM (inactive); 4: 35.7 µM (inactive); 5: 4.55e-05 µM (active); 6: > 100 µM (inactive); 7: 16.5 µM (inactive); 8: > 100 µM (inactive)

Give GI50 for each listed item.
1. CC1=NN(c2nc(N)nc(/C(C#N)=C\c3ccc(-c4ccc([N+](=O)[O-])cc4)o3)n2)C(C)(C)C1
2. CCOC(=O)[C@@H]1ON2O[C@@H](OC3CCCC3(c3ccccc3)c3ccccc3)C[C@H]3OC(=O)[C@@H]1C32 (stereo partly drawn)
3. Brc1ccc2nc(-c3cccs3)nc(N3CCN(c4ccccc4)CC3)c2c1
4. O=c1cc(/C=C/c2ccc(O)c(O)c2)cc(/C=C/c2ccc(O)c(O)c2)o1

Found:
1. > 100 µM (inactive)
2. 22.6 µM (inactive)
3. > 100 µM (inactive)
4. 9.23 µM (inactive)

Give GI50 for each listed item.
1. COc1ccc(C2c3c(-c4ccccc4)nn(-c4ccccc4)c3Oc3ncn(N)c(=N)c32)cc1OC (stereo not drawn)
2. Cc1ccc2c(/C=C/c3ccc(N(C)C)cc3)ccnc2c1C
3. CN(C)CCCN1c2ccc3ccccc3c2Sc2cccc(Cl)c21
4. Cc1ccc([N+](=O)[O-])c2c(NCCC[N+](C)(C)[O-])c3ccccc3nc12
5. C#C[C@]1(O)CC[C@H]2[C@@H]3CCC4=C/C(=N\OCCN5CCCC5)CC[C@]4(C)[C@H]3CC[C@@]21C
6. C#CCn1c(=O)c(I)cn(/C(=C\C(=O)OCC)C(=O)OCC)c1=O

Found:
1: 2.89 µM (inactive); 2: 48 µM (inactive); 3: 4.54 µM (inactive); 4: 1.43 µM (inactive); 5: 19 µM (inactive); 6: 17.5 µM (inactive)

###

system: NCI-H522; test: NCI tumour cell line growth inhibition, 48 h
Calls of active or inactive are those of the source. Rule as the data show it: active = GI50 up to about 1.1 µM and inactive = higher.
Exercise: for every item that follows, state its recorded GI50.

Completed entries (count: 3):
COc1ccc(OC)c(-c2cn3c(n2)sc2ccccc23)c1; > 100 µM (inactive)
NC(N)=NCCC(O)(P(=O)(O)O)P(=O)(O)O; > 100 µM (inactive)
COc1cccc2c1OC(c1cccc3ccccc13)C([N+](=O)[O-])=C2 (centres undefined); 1.33 µM (inactive)

Now, please, on to the next compound.
Lookup: Determine its reported GI50: `S=c1nc(Nc2ccc(Br)cc2)c2c3c(sc2[nH]1)CN(N1CCc2c(sc4[nH]c(=S)nc(Nc5ccc(Br)cc5)c24)C1)CC3`
Found: 12.8 µM (inactive)

###

tested on: RPMI-8226; assay: NCI tumour cell line growth inhibition, 48 h
Active and inactive are the calls of the source. Cut-off read from the data, not from the text of the source: active = GI50 up to about 1.1 µM and inactive = higher.
// one of active, inactive, no free text

These solved cases illustrate the format of a correct answer.
COC1=CC(=O)C2[C@H]3Cc4ccccc4[C@H]3C2(C)C1=O (stereo partly drawn); inactive
O=C(CCCNC(=O)OCc1ccccc1)OCc1ccc2c(c1)C(=O)c1ccccc1C2=O; inactive
O=C1CSc2sc(=S)sc2S1; inactive
COC(=O)C(Cc1c[nH]c2ccccc12)NC(=O)c1ccc(-c2ccc(Cl)cc2Cl)o1 (stereo not drawn); inactive
O=C1c2cccc3cc([N+](=O)[O-])cc(c23)C(=O)N1CCNCCNCCNCCN1C(=O)c2cccc3cc([N+](=O)[O-])cc(c23)C1=O; active
Cc1ccc2nc3sc(=O)sc3nc2c1 [CHINOMETHIONAT]; inactive
CCc1nc(N)nc(N)c1-c1ccc(Cl)c(/N=C/N(C)C)c1; inactive

Lookup: Look up the recorded call for COC(=O)C(C(=O)C(=O)Nc1ccccc1C(C)=O)c1nc2ccc(Cl)cc2nc1O (stereo not drawn) in this test.
Found: inactive

###

Exercise: for every item that follows, state its recorded GI50.
tested on: SN12C; assay: NCI tumour cell line growth inhibition, 48 h
Activity calls are given as the source filed them. Rule as the data show it: active = GI50 up to about 1.1 µM and inactive = higher.

Give GI50 for each listed item.
1. Cc1cc(N(CCC#N)CCC#N)ccc1/C=C(\NC(=O)/C=C/c1ccccc1)NC(=O)Nc1ccc(Cl)cc1
2. CCCCCCN(CCCCCC)C(=S)N/N=C(\C)c1ccccn1
3. O=c1onc2n1-c1cc(Cl)ccc1C(=S)N1CSCC21 (stereo not drawn)

Found:
1. > 100 µM (inactive)
2. 0.957 µM (active)
3. > 100 µM (inactive)

###

system: NCI-H522; assay: NCI tumour cell line growth inhibition, 48 h
Calls of active or inactive are those of the source. Rule as the data show it: active = GI50 up to about 1.1 µM and inactive = higher.
// one of TRUE for active, FALSE for inactive, no free text

O=C(NCCc1ccc(F)cc1)c1cc(/C=C/c2cc(O)ccc2O)ccc1O; FALSE
S=c1sc2ccccc2n1CN1CCN(Cc2ccccc2)CC1; FALSE
Nc1nc(Cc2ccccc2)nc(Cc2ccccc2)c1-c1ccccc1; FALSE
CC(C(=O)NCNC(=O)c1ccccc1)C(=O)NCc1ccccc1 (stereo unspecified); FALSE
C#CC1(O)CCC2C3CCc4cc(Oc5nc(F)nc(-c6c7ccccc7c7sc8ccccc8n67)n5)ccc4C3CC[C@@]21C (stereo partly specified); FALSE
COc1cccc2c1C(=O)c1c(O)c3c(c(O)c1C2=O)C[C@@](O)(C(=O)CO)C[C@@H]3OC1CC(N)C(OC)C(C)O1 (stereo partly specified); TRUE
CC(C)C(OC(=O)c1ccc(NCc2cc(O)ccc2O)cc1)C(C)C; TRUE
C/N=N/N(C)C(=O)NC; FALSE
CC(=O)OC12C(C)=C(C)C(=O)N1c1ccccc1N2C(C)=O (stereo unspecified); FALSE
CCOC(=O)[C@@H]1ON2O[C@@H](OC3CCCC3(c3ccccc3)c3ccccc3)C[C@H]3OC(=O)[C@@H]1C32 (stereo partly specified); FALSE

Lookup: Look up the recorded call for `O=P12N(CCN1c1ccccc1)CCN2c1ccccc1` in this test.
Found: FALSE

Lookup: Look up the recorded call for `O=C1c2cccc3cc([N+](=O)[O-])cc(c23)C(=O)N1CCNCCNCCNCCN1C(=O)c2cccc3cc([N+](=O)[O-])cc(c23)C1=O` in this test.
Found: TRUE

Lookup: Look up the recorded call for `Cc1cc2c(=O)cc(-c3ccc(Cl)c(Cl)c3)oc2c(C(=O)O)c1C` in this test.
Found: FALSE

Lookup: Look up the recorded call for CCC1(O)C(=O)OCc2c1cc1n(c2=O)Cc2cc3ccccc3nc2-1 (stereo unspecified) in this test.
Found: TRUE

Lookup: Look up the recorded call for `CCN(CCCl)CCCNc1c2ccccc2nc2ccc(OC)cc12` in this test.
Found: TRUE

Lookup: Look up the recorded call for Cc1ccccc1NC(=O)C(=O)C(C(=O)c1ccccc1F)C1OC(=O)c2ccccc21 (stereo unspecified) in this test.
Found: FALSE

Lookup: Look up the recorded call for `COc1ccc2oc3c(OC)c(OC)c(OC)cc3c(=O)c2c1` in this test.
Found: FALSE

Lookup: Look up the recorded call for `c1csc(-c2ccc(-c3cccs3)c3nsnc23)c1` in this test.
Found: FALSE

Lookup: Look up the recorded call for COC1=CC(=O)C2[C@H]3Cc4ccccc4[C@H]3C2(C)C1=O (stereo partly specified) in this test.
Found: FALSE
